system: Nucleic Acid; test: In vitro binding affinity to rat liver microsome-mediated AFB1-DNA using [3H]- AFB1 radioligand assay at concentration of 50 uM
Give class 1 when the value for Binding (pM 30min-1 (mg of DNA)-1) is at least 100. Give class 0 when it is less.

Answered examples (5):
sample_smiles=C=CCC1=C[C@]2(OC)[C@H](C)[C@@H](c3ccc4c(c3)OCO4)O[C@]2(OC)C[C@@H]1O answer_label="class 0"
sample_smiles=c1cc2c(cc1[C@H]1OC[C@H]3[C@@H]1CO[C@H]3c1ccc3c(c1)OCO3)OCO2 answer_label="class 0"
sample_smiles=C=CCC1=C[C@@](OC)([C@H](C)Cc2ccc3c(c2)OCO3)C(OC)=CC1=O answer_label="class 1"
sample_smiles=COC(=O)/C=C/C=C/c1ccc2c(c1)OCO2 answer_label="class 0"
sample_smiles=C=CCC1=C[C@]2(OC)[C@H](C)[C@@H](c3ccc4c(c3)OCO4)O[C@]2(OC)CC1=O answer_label="class 1"

# input for lookup
State whether the measured Binding (pM 30min-1 (mg of DNA)-1) reaches 100, counting equality as reaching it, for `O=C(/C=C/C=C/c1ccc2c(c1)OCO2)N1CCCCC1` class 0
